Reference for the values: ChEMBL document CHEMBL2375265

# System: SW480
# experimental-details: Cytotoxicity against human SW480 cells assessed as growth inhibition after 48 hrs by MTT assay
# Format: functional, cell-based
# assay-context: SW480, 48 h
quantity-measured: IC50

Entry COC(=O)CNC(=O)[C@]12CCC(C)(C)C[C@H]1C1=CC[C@@H]3[C@@]4(C)CC=C(B5OC(C)(C)C(C)(C)O5)C(C)(C)[C@@H]4CC[C@@]3(C)[C@]1(C)CC2 : reported IC50 = ? > 50 µM

Entry COC(=O)[C@]12CCC(C)(C)C[C@H]1[C@H]1/C(=N\O)C[C@@H]3[C@@]4(C)CC=C(B5OC(C)(C)C(C)(C)O5)C(C)(C)[C@@H]4CC[C@@]3(C)[C@]1(C)CC2 : reported IC50 = ? > 50 µM

Entry CC1(C)CC[C@]2(C(N)=O)CC[C@]3(C)C(=CC[C@@H]4[C@@]5(C)CC=C(B6OC(C)(C)C(C)(C)O6)C(C)(C)[C@@H]5CC[C@]43C)[C@@H]2C1 : reported IC50 = ? > 50 µM
